- TEST_DETAILS: recombinant UMI read abundance after kanamycin selection (control-corrected) (log10(CPM+1)); higher = more efficient recombination; extreme values may be limits of the assay; sequences stand for … in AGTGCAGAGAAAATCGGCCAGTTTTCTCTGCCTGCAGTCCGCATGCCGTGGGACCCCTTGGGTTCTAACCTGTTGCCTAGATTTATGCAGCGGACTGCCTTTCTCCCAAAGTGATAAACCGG…AGGTTGGTTTCACT; site = the 11-nt donor;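 further: IS621 bridge recombinase in Escherichia coli cells against a fixed T5 target plasmid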
MEASUREMENT_NAME: recombinant UMI read abundance (log10)
Please reply with the value in numeric form only.

Measured recombinant UMI read abundance (log10), GCATGCACATGGACCGGTTTTCCCGGTAATCCGTATTTGTA (site GTATGCACTTA) : 1.01

Measured recombinant UMI read abundance (log10), ATGGAGACATGGACCGGTTTTCCCGGTAATCCGTATTTGGT (site ATAGAGACTAC) : 1.66

Measured recombinant UMI read abundance (log10), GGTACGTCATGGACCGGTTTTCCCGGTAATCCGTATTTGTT (site GGTACGCCTAA) : 0.0208

Measured recombinant UMI read abundance (log10), GGGGTACCATGGACCGGTTTTCCCGGTAATCCGTATTTGCA (site GGGGTACCTTG) : 0

Measured recombinant UMI read abundance (log10), TAATGACCATGGACCGGTTTTCCCGGTAATCCGTATTTGGG (site TAATGACCTCC) : 0.00316

Measured recombinant UMI read abundance (log10), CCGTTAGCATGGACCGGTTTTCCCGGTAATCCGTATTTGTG (site CTGTTAGCTCA) : 0.164

Measured recombinant UMI read abundance (log10), CGTAATACATGGACCGGTTTTCCCGGTAATCCGTATTTGTT (site CGTAATACTAA) : 0.809

Measured recombinant UMI read abundance (log10), TAGGAATCATGGACCGGTTTTCCCGGTAATCCGTATTTGCA (site TAGGAATCTCG) : 1.64

Measured recombinant UMI read abundance (log10), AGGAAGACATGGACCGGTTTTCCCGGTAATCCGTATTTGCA (site ATGACGACTTG) : 0

These data points were gathered from the supplement of paper PMC11208160.
